experiment: Blood pharmacokinetics (dried blood spot LC-MS/MS, non-compartmental analysis); format: in vivo, human; details: human, whole blood, oral, 200 mg, 200 mg BID, Cycle 1 Day 15 (multiple dose), blood, N = 7; geometric mean (% CV)
measurement.name: Cmax (ng/mL)
Quick reminder: number only, in ng/mL, skip the unit.

Prompt: May I ask what Cmax has been recorded for CO[C@@H](C)Cn1c(=O)n(C)c2cnc3ccc(-c4cncc(C(C)(C)O)c4)cc3c21 [LY3023414] ?
Completion: 1010

* * *

test: Blood pharmacokinetics (dried blood spot LC-MS/MS, non-compartmental analysis); type: in vivo, human; settings: human, whole blood (dried blood spot), oral, 200 mg, post administration, each dose level (150 and 200 mg); read-out: median tmax
measurement.name: Tmax

Prompt: Quick one: Tmax of CO[C@@H](C)Cn1c(=O)n(C)c2cnc3ccc(-c4cncc(C(C)(C)O)c4)cc3c21 [LY3023414] ?
Completion: 1 to 3 h

* * *

assay: Blood pharmacokinetics (dried blood spot LC-MS/MS, non-compartmental analysis); format: in vivo, human; settings: human, whole blood, oral, 200 mg, 200 mg BID, Cycle 1 Day 1 (single dose), N = 8; geometric mean (% CV 35); read-out: Vz/F
measurement.name: Vd/F
Phrase the answer as number then unit, nothing more needed.

Prompt: I'd like to know its Vd/F. The molecule in question is CO[C@@H](C)Cn1c(=O)n(C)c2cnc3ccc(-c4cncc(C(C)(C)O)c4)cc3c21
Completion: 136 L

* * *

assay: Blood pharmacokinetics (dried blood spot LC-MS/MS, non-compartmental analysis); type: in vivo, human; details: human, whole blood, oral, 150 mg, 150 mg BID, Cycle 1 Day 15 (multiple dose), blood, N = 3; geometric mean (% CV)
measurement.name: AUC(0-inf) (µg·h/mL)
Hi! Could you send only the number? It should be in µg·h/mL, unit omitted.

Prompt: For CO[C@@H](C)Cn1c(=O)n(C)c2cnc3ccc(-c4cncc(C(C)(C)O)c4)cc3c21 [LY3023414] , what is its reported AUC(0-inf)?
Completion: 5.01

* * *

experiment: Blood pharmacokinetics (dried blood spot LC-MS/MS, non-compartmental analysis); type: in vivo, human; details: human, whole blood, oral, 200 mg, 200 mg BID, Cycle 1 Day 1 (single dose), blood, N = 9; tlast 12 h (AUCτ); geometric mean (% CV); read-out: AUC0-tlast
measurement.name: AUC(0-t)

Prompt: Entry CO[C@@H](C)Cn1c(=O)n(C)c2cnc3ccc(-c4cncc(C(C)(C)O)c4)cc3c21 : reported AUC(0-t) = ?
Completion: 4140 ng·h/mL

* * *

assay: Blood pharmacokinetics (dried blood spot LC-MS/MS, non-compartmental analysis); format: in vivo, human; conditions: human, whole blood, oral, 200 mg, 200 mg BID, Cycle 1 Day 1 (single dose), blood, N = 9; geometric mean (% CV)
measurement.name: Cmax (ng/mL)
Express it in ng/mL; write the number only.

Prompt: Give its Cmax value. Item: CO[C@@H](C)Cn1c(=O)n(C)c2cnc3ccc(-c4cncc(C(C)(C)O)c4)cc3c21
Completion: 1020

* * *

assay: Blood pharmacokinetics (dried blood spot LC-MS/MS, non-compartmental analysis); assay type: in vivo, human; details: human, whole blood, oral, 150 mg, 150 mg BID, Cycle 1 Day 15 (multiple dose), blood, N = 3; geometric mean (range); read-out: t1/2 (converted)
measurement.name: half-life (h)
Please give a number only; it is taken to be in h.

Prompt: # half-life lookup, item CO[C@@H](C)Cn1c(=O)n(C)c2cnc3ccc(-c4cncc(C(C)(C)O)c4)cc3c21
Completion: 1.81

Recorded values, source paper PMC7575488.
